- Tested on: JHU-022 (Oral Cavity Carcinoma);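 also: after 72 h of two-drug dosing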
- Experimental details: Bliss excess, mean over the matrix (fraction); higher = more synergy
Parameter: Bliss excess

Compound	Val
COc1cccc(OCCCN)c1-c1cc(Nc2cnc(C#N)cn2)n[nH]1 [Prexasertib] + C[C@@H]1COCCN1C2=NC(=NC(=C2)C3(CC3)[S@](=N)(=O)C)C4=C5C=CNC5=NC=C4 [AZD6738] (first compound max 1 µM, 7x7, partner max 10 µM)	-0.0238
CN(CCO)CC[C@H](CSc1ccccc1)Nc1ccc(S(=O)(=O)NC(=O)c2ccc(N3CCC([C@@H](O)c4ccccc4-c4ccc(Cl)cc4)CC3)cc2)cc1S(=O)(=O)C(F)(F)F [AZD4320] + C[C@@H](Nc1cc(F)cc(F)c1)c1cc(C(=O)N(C)C)cc2c(=O)cc(N3CCOCC3)oc12 [AZD8186] (first compound max 1 µM, 7x7, partner max 3 µM)	-0.0104
NC1(C(=O)N[C@@H](CCO)c2ccc(Cl)cc2)CCN(c2ncnc3[nH]ccc23)CC1 [Capivasertib] + CC(C)n1c(=O)n(C)c2cnc3cc(F)c(-c4ccc(OCCCN5CCCCC5)nc4)cc3c21 [AZD1390] (first compound max 10 µM, 7x7, partner max 0.3 µM)	-0.0564

Numbers sourced from the supplement of paper PMC11061612.
